I'd appreciate it if you could supply pIC50 values for the items below.
As a rule, pIC50 stands for the negative log10 of the concentration, concentration in M.

Lab entry: UniProt P09619 assay, compound `COc1cccc(-c2ccc3c(c2)NC(=O)/C3=C\c2[nH]cc(CCC(=O)O)c2C)c1` , pIC50 = 6.77

Item `COc1ccccc1-c1ccc2c(c1)NC(=O)/C2=C\c1[nH]c(C)c(CCC(=O)O)c1C` was tested on UniProt P09619; the reported pIC50 is 5.65

Here `COc1ccccc1-c1ccc2c(c1)NC(=O)/C2=C\c1[nH]cc(CCC(=O)O)c1C` was tested on UniProt P09619, and its pIC50 came to 5.85

Here `Cc1c(CCC(=O)O)c[nH]c1/C=C1\C(=O)Nc2ccccc21` was tested on UniProt P09619, and its pIC50 came to 6.85

# value of pIC50, UniProt P09619, item `Cc1c(CCC(=O)O)c[nH]c1/C=C1\C(=O)Nc2ccc(S(N)(=O)=O)cc21` = 5.22

pIC50 for UniProt P09619 with input `Cc1c[nH]c(/C=C2\C(=O)Nc3ccccc32)c1CCC(=O)O` equals 6.29

Readout pIC50 for `COc1ccc(-c2ccc3c(c2)NC(=O)/C3=C\c2[nH]c(C)c(CCC(=O)O)c2C)cc1` , test system UniProt P09619, was 6.00

The recorded pIC50 with UniProt P09619 for `COc1cccc(-c2ccc3c(c2)NC(=O)/C3=C\c2[nH]cc(C)c2CCC(=O)O)c1` was 6.35

Readout pIC50 for `COc1ccc2c(c1)NC(=O)/C2=C\c1[nH]cc(CCC(=O)O)c1C` , test system UniProt P09619, was 6.85

Considering Cc1[nH]c(/C=C2\C(=O)Nc3ccccc32)c(C)c1CCC(=O)O [ORANTINIB] , its pIC50 with UniProt P09619 was recorded as 7.22

* * *

measuredProperty: IC50 (nM)
// units = nM; emit number, no label

The reported IC50 value, Vascular endothelial growth factor receptor 2 (Homo sapiens), for `Cc1[nH]c(/C=C2\C(=O)Nc3ccc(S(N)(=O)=O)cc32)c(C)c1CCC(=O)O` reads 1260

Kindly note: Vascular endothelial growth factor receptor 2 (Homo sapiens), `COc1cccc(-c2ccc3c(c2)NC(=O)/C3=C\c2[nH]c(C)c(CCC(=O)O)c2C)c1` , IC50 value reported: 300

IC50 value, target or system Vascular endothelial growth factor receptor 2 (Homo sapiens), for `COc1ccc2c(c1)NC(=O)/C2=C\c1[nH]c(C)c(CCC(=O)O)c1C` : 8290

Tested system Vascular endothelial growth factor receptor 2 (Homo sapiens); IC50 recorded for `COc1ccccc1-c1ccc2c(c1)NC(=O)/C2=C\c1[nH]cc(CCC(=O)O)c1C` was 1470

* * *

# studySystem: Fibroblast growth factor receptor 1 (Homo sapiens)
# Sequence (P11362 whole entry): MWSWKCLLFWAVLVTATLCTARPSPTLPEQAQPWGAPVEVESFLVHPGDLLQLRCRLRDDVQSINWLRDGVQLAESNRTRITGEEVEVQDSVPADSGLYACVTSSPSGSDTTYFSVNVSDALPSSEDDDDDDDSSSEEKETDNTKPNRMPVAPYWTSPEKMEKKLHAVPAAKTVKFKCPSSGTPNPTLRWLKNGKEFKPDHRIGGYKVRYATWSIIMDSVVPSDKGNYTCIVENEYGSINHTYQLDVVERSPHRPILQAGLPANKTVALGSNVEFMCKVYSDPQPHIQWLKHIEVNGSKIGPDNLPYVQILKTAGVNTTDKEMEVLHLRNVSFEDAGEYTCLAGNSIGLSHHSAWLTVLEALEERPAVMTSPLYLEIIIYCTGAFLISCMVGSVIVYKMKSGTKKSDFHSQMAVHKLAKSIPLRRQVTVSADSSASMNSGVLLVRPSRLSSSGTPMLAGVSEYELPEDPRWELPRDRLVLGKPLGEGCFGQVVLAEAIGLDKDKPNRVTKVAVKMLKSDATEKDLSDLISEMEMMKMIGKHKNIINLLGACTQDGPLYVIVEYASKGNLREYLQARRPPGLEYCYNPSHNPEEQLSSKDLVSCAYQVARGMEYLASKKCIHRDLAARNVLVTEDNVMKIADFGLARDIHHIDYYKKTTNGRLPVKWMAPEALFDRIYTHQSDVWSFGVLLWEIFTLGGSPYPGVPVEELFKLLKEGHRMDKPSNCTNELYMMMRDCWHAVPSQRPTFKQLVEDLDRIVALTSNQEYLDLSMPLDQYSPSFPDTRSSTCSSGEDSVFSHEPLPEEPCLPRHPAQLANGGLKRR
Cut-off 1 µM on IC50: below means true (1), at or above means false (0).

Would you kindly verify if IC50 of `Cc1c(CCC(=O)O)c[nH]c1/C=C1\C(=O)Nc2ccccc21` is strictly less than 1 µM? false (0)

Please state whether IC50 is below 1 µM for `Cc1[nH]c(/C=C2\C(=O)Nc3ccc(C(=O)O)cc32)c(C)c1CCC(=O)O` true (1)

Given the entry `Cc1c(CCC(=O)O)c[nH]c1/C=C1\C(=O)Nc2ccc(S(N)(=O)=O)cc21` , would its reported IC50 be below 1 µM? true (1)

Determine whether this molecule shows IC50 lower than 1 µM (ties excluded): `COc1ccccc1-c1ccc2c(c1)NC(=O)/C2=C\c1[nH]c(C)c(CCC(=O)O)c1C` false (0)

For `Cc1c[nH]c(/C=C2\C(=O)Nc3ccccc32)c1CCC(=O)O` , is the recorded IC50 below the cut-off of 1 µM? true (1)

Is 1 µM strictly greater than the molecule's reported IC50? molecule: `Cc1[nH]c(/C=C2\C(=O)Nc3ccc(S(N)(=O)=O)cc32)c(C)c1CCC(=O)O` true (1)

hey, is IC50 for `COc1ccc2c(c1)NC(=O)/C2=C\c1[nH]cc(CCC(=O)O)c1C` lower than 1 µM or not? false (0)

Regarding `Cc1[nH]c(/C=C2\C(=O)Nc3cc(-c4ccccc4)ccc32)c(C)c1CCC(=O)O` , kindly confirm whether its IC50 is beneath 1 µM. false (0)

Would you kindly verify if IC50 of `CCOc1cccc(-c2ccc3c(c2)NC(=O)/C3=C\c2[nH]cc(C)c2CCC(=O)O)c1` is strictly less than 1 µM? false (0)

# TODO verify IC50 < 1 µM strictly for this molecule: `COc1ccccc1-c1ccc2c(c1)NC(=O)/C2=C\c1[nH]cc(CCC(=O)O)c1C` false (0)

Please state whether IC50 is below 1 µM for `Cc1c(CCC(=O)O)c[nH]c1/C=C1\C(=O)Nc2cc(-c3ccccc3)ccc21` false (0)
